ASSAY EXPLANATION: Signal strength differences due to reaction pH and buffer composition (hydrogen peroxide, D-cysteine conversion, LDR)
Assay type: biochemical
EXPERIMENTAL CONTEXT: Tris pH 7.4, 15 minutes
For each entry below, report its Signal to Background Ratios at 15 Minutes value.

Take a look at these entries with their results.
CC1(C)OB(c2ccc(COc3ccc4nc(C#N)sc4c3)cc2F)OC1(C)C	1.9
CC1(C)OB(c2ccc(COc3ccc4nc(C#N)sc4c3)cc2)OC1(C)C	6.6
CC1(C)OB(c2ccc(COc3ccc4nc(C#N)sc4c3)c3ccccc23)OC1(C)C	1.2

The record that follows has no Signal to Background Ratios at 15 Minutes shown yet.
Q: Which value of Signal to Background Ratios at 15 Minutes has been reported for CC1(C)OB(/C=C/COc2ccc3nc(C#N)sc3c2)OC1(C)C in the records?
A: 2.2

###

For each entry below, report its average relative light units (bioluminescence) value.
ASSAY EXPLANATION: Generation of bioluminescence from luciferin borates upon treatment with hydrogen peroxide (luciferase light reaction)
Assay type: biochemical
EXPERIMENTAL CONTEXT: H2O2 10 μM, phosphate buffer pH 7.73, 70 minutes

Take a look at these entries with their results.
CC(Oc1ccc2nc(C3=NC(C(=O)O)CS3)sc2c1)c1ccc(B(O)O)cc1 (stereo not shown) [PBI 4425]	17,086 RLU
O=C(O)C1CSC(c2nc3ccc(OCc4ccc(B(O)O)c5ccccc45)cc3s2)=N1 (stereo not shown) [PBI 4013]	1,634,356 RLU
O=C(O)C1CSC(c2nc3ccc(OCc4c(B(O)O)ccc5ccccc45)cc3s2)=N1 (stereo not shown) [PBI 4424]	19,298 RLU

The record that follows has no average relative light units (bioluminescence) shown yet.
Q: Which value of average relative light units (bioluminescence) has been reported for O=C(O)C1CSC(c2nc3ccc(OCc4ccc(B(O)O)cc4)cc3s2)=N1 (stereo not shown) [PBI 3048] in the records?
A: 2,057,780 RLU

###

ASSAY EXPLANATION: Generation of bioluminescence from luciferin borates upon treatment with hydrogen peroxide (luciferase light reaction)
Type: biochemical
EXPERIMENTAL CONTEXT: H2O2 5 μM, phosphate buffer pH 8.04, 70 minutes
MEASURE NAME: average relative light units (bioluminescence)

CC(Oc1ccc2nc(C3=NC(C(=O)O)CS3)sc2c1)c1ccc(B(O)O)cc1 (stereo not shown)	15,130 RLU
O=C(O)C1CSC(c2nc3ccc(OCc4ccc(B(O)O)cc4)cc3s2)=N1 (stereo not shown)	1,831,013 RLU
O=C(O)C1CSC(c2nc3ccc(OCc4ccc(B(O)O)c5ccccc45)cc3s2)=N1 (stereo not shown)	1,534,619 RLU

The record that follows has no average relative light units (bioluminescence) shown yet.
Q: Which value of average relative light units (bioluminescence) has been reported for O=C(O)C1CSC(c2nc3ccc(OCc4c(B(O)O)ccc5ccccc45)cc3s2)=N1 (stereo not shown) in the records?
A: 20,935 RLU

###

For each entry below, report its average relative light units (bioluminescence) value.
ASSAY EXPLANATION: Generation of bioluminescence from luciferin borates upon treatment with hydrogen peroxide (luciferase light reaction)
Assay type: biochemical
EXPERIMENTAL CONTEXT: H2O2 0 μM, phosphate buffer pH 7.41, 70 minutes

Take a look at these entries with their results.
CC(Oc1ccc2nc(C3=NC(C(=O)O)CS3)sc2c1)c1ccc(B(O)O)cc1 (stereo not shown)	10,266 RLU
O=C(O)C1CSC(c2nc3ccc(OCc4ccc(B(O)O)cc4)cc3s2)=N1 (stereo not shown)	418,478 RLU
O=C(O)C1CSC(c2nc3ccc(OCc4ccc(B(O)O)c5ccccc45)cc3s2)=N1 (stereo not shown)	469,602 RLU

The record that follows has no average relative light units (bioluminescence) shown yet.
Q: Which value of average relative light units (bioluminescence) has been reported for O=C(O)C1CSC(c2nc3ccc(OCc4c(B(O)O)ccc5ccccc45)cc3s2)=N1 (stereo not shown) in the records?
A: 16,181 RLU

###

ASSAY EXPLANATION: Signal strength differences due to reaction pH and buffer composition (hydrogen peroxide, D-cysteine conversion, LDR)
Format: biochemical
EXPERIMENTAL CONTEXT: KPO4 Ph 7.4, 15 minutes, 100 μl of 10 μM H2O2 added
For each entry below, report its Net Average Signals at 15 Minutes value.

CC1(C)OB(c2ccc(COc3ccc4nc(C#N)sc4c3)c3ccccc23)OC1(C)C	3,538 RLU
CC1(C)OB(c2ccc(COc3ccc4nc(C#N)sc4c3)cc2F)OC1(C)C	16,032 RLU
CC1(C)OB(c2ccc(COc3ccc4nc(C#N)sc4c3)cc2)OC1(C)C	43,867 RLU

Q: Which value of Net Average Signals at 15 Minutes has been reported for CC1(C)OB(/C=C/COc2ccc3nc(C#N)sc3c2)OC1(C)C in the records?
A: 148,190 RLU

###

ASSAY EXPLANATION: Generation of bioluminescence from luciferin borates upon treatment with hydrogen peroxide (luciferase light reaction)
Type: biochemical
EXPERIMENTAL CONTEXT: H2O2 10 μM, phosphate buffer pH 9.18, 70 minutes
MEASURE NAME: average relative light units (bioluminescence)

Batch request: average relative light units (bioluminescence) per item, same order as input.
1. CC(Oc1ccc2nc(C3=NC(C(=O)O)CS3)sc2c1)c1ccc(B(O)O)cc1 (stereo not shown)
2. O=C(O)C1CSC(c2nc3ccc(OCc4c(B(O)O)ccc5ccccc45)cc3s2)=N1 (stereo not shown)
3. O=C(O)C1CSC(c2nc3ccc(OCc4ccc(B(O)O)c5ccccc45)cc3s2)=N1 (stereo not shown)
4. O=C(O)C1CSC(c2nc3ccc(OCc4ccc(B(O)O)cc4)cc3s2)=N1 (stereo not shown)

A:
["26,859 RLU", "20,333 RLU", "5,433,577 RLU", "6,426,397 RLU"]

###

For each entry below, report its average relative light units (bioluminescence) value.
ASSAY EXPLANATION: Generation of bioluminescence from luciferin borates upon treatment with hydrogen peroxide (luciferase light reaction)
Assay type: biochemical
EXPERIMENTAL CONTEXT: H2O2 15 μM, phosphate buffer pH 9.18, 70 minutes
Procedure: In this example, luciferin borates were incubated with hydrogen peroxide, and luciferin generation was measured using a light reaction catalyzed by luciferase. An increase in light output (bioluminescence) as a result of treatment of the luciferin borates with hydrogen peroxide indicates generation of luciferin as a result of the reaction with hydrogen peroxide. […]

O=C(O)C1CSC(c2nc3ccc(OCc4ccc(B(O)O)cc4)cc3s2)=N1 (stereo not shown)	7,447,757 RLU

Batch request: average relative light units (bioluminescence) per item, same order as input.
1. CC(Oc1ccc2nc(C3=NC(C(=O)O)CS3)sc2c1)c1ccc(B(O)O)cc1 (stereo not shown)
2. O=C(O)C1CSC(c2nc3ccc(OCc4c(B(O)O)ccc5ccccc45)cc3s2)=N1 (stereo not shown)
3. O=C(O)C1CSC(c2nc3ccc(OCc4ccc(B(O)O)c5ccccc45)cc3s2)=N1 (stereo not shown)

A:
24,236 RLU
20,453 RLU
7,062,631 RLU

###

ASSAY EXPLANATION: Generation of bioluminescence from luciferin borates upon treatment with hydrogen peroxide (luciferase light reaction)
Assay type: biochemical
EXPERIMENTAL CONTEXT: all pH values 6.87 to 9.18
MEASURE NAME: light signal increase upon addition of hydrogen peroxide (in words)

CC(Oc1ccc2nc(C3=NC(C(=O)O)CS3)sc2c1)c1ccc(B(O)O)cc1 (stereo not shown)	much smaller
O=C(O)C1CSC(c2nc3ccc(OCc4c(B(O)O)ccc5ccccc45)cc3s2)=N1 (stereo not shown)	much smaller
O=C(O)C1CSC(c2nc3ccc(OCc4ccc(B(O)O)c5ccccc45)cc3s2)=N1 (stereo not shown)	increased strongly
O=C(O)C1CSC(c2nc3ccc(OCc4ccc(B(O)O)cc4)cc3s2)=N1 (stereo not shown)	increased strongly

###

For each entry below, report its averaged RLUs (bioluminescence) value.
ASSAY EXPLANATION: Light generation from compounds following incubation with hydrogen peroxide in different pH solutions (D-cysteine conversion, LDR)
Type: biochemical
EXPERIMENTAL CONTEXT: pH 10.4 Tris buffer, With H2O2 (25 μl of 40 μM added), 60 minutes

N#Cc1nc2ccc(OCc3ccc(B(O)O)c(Cl)c3)cc2s1 [PBI 4470]	13,391,102 RLU
CC1(C)OB(c2ccc(COc3ccc4nc(C#N)sc4c3)cc2)OC1(C)C [PBI 4472]	8,159,216 RLU
N#Cc1nc2ccc(OCc3ccc(B(O)O)cc3)cc2s1 [PBI 4452]	14,577,312 RLU
CC1(C)OB(c2ccc(COc3ccc4nc(C#N)sc4c3)cc2F)OC1(C)C [PBI 4481]	7,474,603 RLU
CC1(C)OB(c2ccc(COc3ccc4nc(C#N)sc4c3)c3ccccc23)OC1(C)C [PBI 4480]	5,295,463 RLU

The record that follows has no averaged RLUs (bioluminescence) shown yet.
Q: Which value of averaged RLUs (bioluminescence) has been reported for O=C(O)C1CSC(c2nc3ccc(OCc4ccc(B(O)O)cc4)cc3s2)=N1 (stereo not drawn) [PBI 3048] in the records?
A: 3,768,437 RLU

Values from patent US8937183B2
